- assay system: HLA A*3001 (Homo sapiens, UniProt P04439, D140H/D185E/E176W/F33S/G80R/H175R/K168Q/R138E/R41S)
- Sequence (P04439 25-365 limits assumed, stated change not applied): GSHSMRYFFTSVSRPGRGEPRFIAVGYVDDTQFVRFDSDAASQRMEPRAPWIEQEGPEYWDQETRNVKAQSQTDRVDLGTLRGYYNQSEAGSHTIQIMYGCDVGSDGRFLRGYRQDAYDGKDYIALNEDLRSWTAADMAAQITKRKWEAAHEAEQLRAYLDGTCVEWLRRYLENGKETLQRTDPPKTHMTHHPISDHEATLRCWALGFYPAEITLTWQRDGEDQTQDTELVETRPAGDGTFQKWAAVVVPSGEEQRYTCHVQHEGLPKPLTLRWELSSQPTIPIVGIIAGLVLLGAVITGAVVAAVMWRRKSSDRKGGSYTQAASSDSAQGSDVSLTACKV
- assay procedure: biochemical
pIC50: −log10 of the molar value. Where a SMILES comes first, the peptide text is derived from it.

compound	pIC50
CSCC[C@H](N)C(=O)NCC(=O)N[C@@H](CCCNC(=N)N)C(=O)N[C@@H](Cc1ccccc1)C(=O)NCC(=O)N[C@@H](Cc1ccc(O)cc1)C(=O)N[C@H](C(=O)N1CCC[C@H]1C(=O)N[C@@H](Cc1ccc(O)cc1)C(=O)O)C(C)C [3102.0212] (H-MGRFGYVPY-OH)	7.82
CC(C)[C@H](NC(=O)[C@@H](N)Cc1c[nH]cn1)C(=O)N[C@@H](Cc1ccc(O)cc1)C(=O)N[C@@H](CC(=O)O)C(=O)N[C@@H](Cc1ccccc1)C(=O)N[C@@H](CCC(=O)O)C(=O)N1CCC[C@H]1C(=O)N[C@@H](Cc1ccc(O)cc1)C(=O)N[C@@H](Cc1ccc(O)cc1)C(=O)O [3102.0068] (H-HVYDFEPYY-OH)	7.57
CSCC[C@H](NC(=O)[C@@H](N)CCCCN)C(=O)N[C@@H](CCCNC(=N)N)C(=O)N[C@@H](CCCNC(=N)N)C(=O)N[C@@H](CCC(=O)O)C(=O)N[C@@H](CCCNC(=N)N)C(=O)N[C@@H](C)C(=O)N[C@@H](C)C(=O)N[C@@H](Cc1ccc(O)cc1)C(=O)O [3102.0231] (H-KMRRERAAY-OH)	8.52
C[C@@H](O)[C@H](NC(=O)[C@@H](N)CCCNC(=N)N)C(=O)N[C@@H](Cc1c[nH]cn1)C(=O)N[C@@H](Cc1ccccc1)C(=O)N[C@@H](CO)C(=O)N[C@@H](CCC(N)=O)C(=O)N1CCC[C@H]1C(=O)N[C@@H](CO)C(=O)NCC(=O)O [3102.0048] (H-RTHFSQPSG-OH)	7.82
CC(C)C[C@H](NC(=O)[C@H](CCCNC(=N)N)NC(=O)[C@@H](NC(=O)[C@@H](N)CCCNC(=N)N)C(C)C)C(=O)N[C@@H](CCCNC(=N)N)C(=O)N[C@@H](Cc1ccc(O)cc1)C(=O)N[C@@H](CCCNC(=N)N)C(=O)N[C@@H](CO)C(=O)NCC(=O)O [3102.0082] (H-RVRLRYRSG-OH)	7.89
CC[C@H](C)[C@H](NC(=O)[C@H](CC(N)=O)NC(=O)[C@H](CC(=O)O)NC(=O)[C@H](CO)NC(=O)[C@H](CCCNC(=N)N)NC(=O)[C@@H](NC(=O)[C@@H](N)CCCCN)[C@@H](C)CC)C(=O)N[C@@H](CCCCN)C(=O)N[C@@H](CCCCN)C(=O)O [3102.0051] (H-KIRSDNIKK-OH)	7.92
CC[C@H](C)[C@H](NC(=O)[C@@H](NC(=O)[C@H](CO)NC(=O)[C@H](CCCNC(=N)N)NC(=O)[C@H](CC(C)C)NC(=O)[C@H](CO)NC(=O)[C@@H](N)CCSC)[C@@H](C)O)C(=O)N[C@H](C(=O)N[C@@H](CCCCN)C(=O)O)[C@@H](C)CC [3102.0180] (H-MSLRSTIIK-OH)	7.43
CC(C)C[C@H](NC(=O)[C@H](CO)NC(=O)[C@@H]1CCCN1C(=O)[C@H](CC(C)C)NC(=O)[C@H](Cc1ccc(O)cc1)NC(=O)[C@H](CCCNC(=N)N)NC(=O)[C@@H](NC(=O)[C@@H](N)CCCNC(=N)N)[C@@H](C)O)C(=O)N[C@H](C(=O)O)C(C)C [3102.0167] (H-RTRYLPSLV-OH)	9.31
CC(C)[C@H](NC(=O)[C@H](CCCCN)NC(=O)[C@H](Cc1ccccc1)NC(=O)[C@@H](NC(=O)[C@H](CC(=O)O)NC(=O)[C@H](Cc1ccc(O)cc1)NC(=O)[C@H](CCCNC(=N)N)NC(=O)[C@@H](NC(=O)[C@@H](N)CCCNC(=N)N)[C@@H](C)O)[C@@H](C)O)C(=O)O [3102.0144] (H-RTRYDTFKV-OH)	9.70
CSCC[C@H](NC(=O)[C@H](CC(C)C)NC(=O)[C@H](CCCNC(=N)N)NC(=O)[C@H](C)NC(=O)[C@@H](N)CC(N)=O)C(=O)N[C@@H](CCCNC(=N)N)C(=O)N[C@@H](C)C(=O)N[C@@H](CC(C)C)C(=O)N[C@@H](CCCCN)C(=O)O [3102.0218] (H-NARLMRALK-OH)	8.66
CSCC[C@H](NC(=O)[C@H](CC(C)C)NC(=O)[C@@H](NC(=O)[C@@H](N)Cc1c[nH]cn1)C(C)C)C(=O)N[C@@H](Cc1c[nH]cn1)C(=O)N[C@@H](CO)C(=O)N1CCC[C@H]1C(=O)N[C@@H](CC(C)C)C(=O)N[C@H](C(=O)O)C(C)C [3102.0062] (H-HVLMHSPLV-OH)	7.52
CC(C)C[C@H](N)C(=O)N[C@@H](C)C(=O)N[C@@H](CCCNC(=N)N)C(=O)N[C@@H](CCCNC(=N)N)C(=O)N1CCC[C@H]1C(=O)N[C@H](C(=O)N1CCC[C@H]1C(=O)N[C@@H](CCCCN)C(=O)N[C@@H](CCCCN)C(=O)O)[C@@H](C)O [3102.0275] (H-LARRPTPKK-OH)	8.00
CC[C@H](C)[C@H](NC(=O)[C@@H](NC(=O)[C@H](CO)NC(=O)[C@H](CO)NC(=O)[C@H](CO)NC(=O)[C@H](CCCCN)NC(=O)[C@H](C)NC(=O)[C@@H](NC(=O)[C@@H](N)CC(C)C)[C@@H](C)CC)C(C)C)C(=O)O [3102.1021] (H-LIAKSSSVI-OH)	7.96
